Entries annotated with measured pest or weed control at 100 ppm
test system: Puccinia triticina; Synonym: Puccinia recondite f. sp. tritici; assay: Wheat brown rust (PUCCRT) disease control on wheat seedlings; assay type: in vivo; conditions: Puccinia triticina, 24 h; Wheat Brown Rust; 1 Day Protectant; high volume application, 100 ppm; read-out: Disease Control PUCCRT 1 DP 100 ppm

>  <molecular-string>
CCCO[C@H]1CCC[C@H](NC(=O)c2nccc(OC)c2O)C(=O)O[C@@H](C)[C@@H]1Oc1cccc(F)c1

>  <pest or weed control at 100 ppm>
80 to 100%

$$$$
>  <molecular-string>
CCCO[C@H]1[C@H](C)OC(=O)[C@@H](NC(=O)c2nccc(OC)c2O)CCC[C@@H]1Oc1cccc(F)c1

>  <pest or weed control at 100 ppm>
80 to 100%

$$$$
>  <molecular-string>
CCCO[C@H]1CCC[C@H](NC(=O)c2nccc(OC)c2O)C(=O)O[C@@H](C)[C@@H]1Oc1ccc(F)cc1

>  <pest or weed control at 100 ppm>
0 to 80%

$$$$

Next, consider the following compound.
Reported pest or weed control at 100 ppm ( CCCO[C@H]1CCC[C@H](NC(=O)c2nccc(OC)c2O)C(=O)O[C@@H](C)[C@@H]1Oc1cccc(Cl)c1 ) = 80 to 100%
